Sourced from patent US20260092061A1

Each entry below carries its reported Dmax.
systemUnderTest: BRD9 (Homo sapiens)
Sequence (Q9H8M2 1-597): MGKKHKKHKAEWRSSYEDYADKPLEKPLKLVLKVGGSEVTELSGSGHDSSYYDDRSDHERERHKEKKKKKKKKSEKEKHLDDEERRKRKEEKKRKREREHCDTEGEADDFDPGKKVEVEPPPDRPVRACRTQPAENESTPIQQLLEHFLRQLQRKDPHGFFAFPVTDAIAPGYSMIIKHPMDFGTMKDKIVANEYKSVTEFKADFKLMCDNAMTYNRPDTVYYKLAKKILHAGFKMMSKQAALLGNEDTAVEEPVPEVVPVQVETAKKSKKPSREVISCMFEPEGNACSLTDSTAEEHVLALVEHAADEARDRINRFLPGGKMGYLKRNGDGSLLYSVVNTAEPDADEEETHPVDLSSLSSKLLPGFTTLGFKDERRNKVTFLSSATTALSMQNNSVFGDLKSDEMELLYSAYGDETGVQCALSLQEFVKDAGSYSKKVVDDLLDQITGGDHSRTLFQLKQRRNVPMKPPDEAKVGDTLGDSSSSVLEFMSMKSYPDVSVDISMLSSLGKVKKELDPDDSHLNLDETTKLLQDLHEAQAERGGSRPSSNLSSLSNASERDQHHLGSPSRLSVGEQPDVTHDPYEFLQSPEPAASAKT
protocolDetails: Degradation of BRD9 (IF), immunofluorescence in MV4-11 cells, 24 hours (Assay Protocol 2)
Format: cell-based
Design: A suspension of MV4-11 cells (ATCC CRL-9591) was prepared; host or cells: MV4-11
conditionContext: MV4-11, Assay protocol 2; BRD9 degradation; read-out: Dmax

Observe how each entry below is paired with its result.
COc1cc(-c2cn(C)c(=O)c(C)c2C)cc(OC)c1CN1CCN(Cc2ccc3c(c2)C(C)N(C(=O)/C(C#N)=C/C2(C)CCC(F)(F)CC2)CC3)C2(CC2)C1 (single isomer, unassigned)
70 to 75%
COc1cc(-c2cn(C)c(=O)c(C)c2C)cc(OC)c1CN1CCN(C(=O)[C@@H]2CN(C(=O)/C(C#N)=C/c3nccs3)C[C@H]2c2ccccc2)CC1
40 to 70%

Ask: Request body: readout Dmax, system BRD9 (Homo sapiens), query COc1cc(-c2cn(C)c(=O)c(C)c2C)cc(OC)c1CN1C[C@H](C)N(Cc2cccc3c2CCN(C(=O)/C(C#N)=C/C(C)(C)CF)C3C(C)C)C[C@H]1C (mixture of isomers) . Return the value.
Reply: > 75%

Ask: What is its Dmax for BRD9 (Homo sapiens)? Entry: COc1cc(-c2cn(C)c(=O)c(C)c2C)cc(OC)c1CN1CCN(Cc2cccc3c2CCN(C(=O)/C(C#N)=C/C(C)(C)C)C3(C)C)C2(CC2)C1
Reply: 40 to 70%

Ask: What measured Dmax is associated with COc1cc(-c2cn(C)c(=O)c(C)c2C)cc(OC)c1CN1CCN(Cc2cccc3c2CCN(C(=O)/C(C#N)=C/C(C)(C)C)C3C(C)C)CC1 (mixture of isomers) on BRD9 (Homo sapiens)?
Reply: > 75%

====

systemUnderTest: BRD9 (Homo sapiens, UniProt Q9H8M2)
protocolDetails: Degradation of BRD9 (IF), immunofluorescence in MV4-11 cells, 24 hours (Assay Protocol 2)
Type: cell-based
Parameters: A suspension of MV4-11 cells (ATCC CRL-9591) was prepared; host or cells: MV4-11
conditionContext: MV4-11, Assay protocol 2; BRD9 degradation; read-out: Dmax
// Dmax lookup, one value per entry

The examples below pair each entry with its known result.
COc1cc(-c2cn(C)c(=O)c(C)c2C)cc(OC)c1CN1CCN(Cc2cccc3c2CCN(C(=O)/C(C#N)=C/C2CCCC2)C3C)CC1 (mixture of isomers) [Compound B90]
40 to 70%
COc1cc(-c2cn(C)c(=O)c(C)c2C)cc(OC)c1CN1CCN(Cc2ccc3c(c2)[C@H](C)N(C(=O)/C(C#N)=C/C(C)(C)C)CC3)C2(CC2)C1 (single isomer, unassigned) [Compound C36]
40 to 70%
COc1cc(-c2cn(C)c(=O)c(C)c2C)cc(OC)c1CN1CCCN(c2ccc3c(c2)[C@@H](C)N(C(=O)/C(C#N)=C/C(C)(C)CF)CC3)CC1 (mixture of isomers) [Compound C69]
40 to 70%

Ask: // returns reported Dmax for input COc1cc(-c2cn(C)c(=O)c(C)c2C)cc(OC)c1CN1C[C@H](C)N(Cc2cccc3c2CCN(C(=O)/C(C#N)=C/C(C)(C)C)C3C)[C@@H](C)C1 (mixture of isomers) [Compound B100]
Reply: 70 to 75%

Ask: # input compound: COc1cc(-c2cn(C)c(=O)c(C)c2C)cc(OC)c1CN1CCC(COc2ccc3c(c2)[C@H](C)N(C(=O)/C(C#N)=C/C(C)(C)C)CC3)CC1 [Compound C61] ; wanted: its Dmax
Reply: > 75%

====

systemUnderTest: BRD9 (Homo sapiens, UniProt Q9H8M2)
protocolDetails: Degradation of BRD9 (IF), immunofluorescence in MV4-11 cells, 24 hours (Assay Protocol 2)
Assay type: cell-based
Design: A suspension of MV4-11 cells (ATCC CRL-9591) was prepared; host or cells: MV4-11
conditionContext: Assay protocol 2; BRD9 degradation; read-out: DC50
Method: Assay Protocol 2—Degradation of BRD9 (IF) A suspension of MV4-11 cells (ATCC CRL-9591) was prepared in phenol red-free assay media (IMDM Thermo Scientific 21056023+10% FBS ATCC 302025) and cells were seeded at 20,000 cells per well (45 μL) in sterile black poly-d-lysine coated 384 well plates (Greiner 781948). Compounds were prepared at 1000× final concentration in DMSO, diluted 1:100 in assay media, and 5 μL compound was added to each well of the cell plate. […]
// reported DC50 per item

Some compounds with recorded DC50:
COc1cc(-c2cn(C)c(=O)c(C)c2C)cc(OC)c1CN1CCN(Cc2cccc3c2CCN(C(=O)/C(C#N)=C/C2CCCCC2)C3C)CC1 (mixture of isomers) [Compound B73]
25 to 1000 nM
COc1cc(-c2cn(C)c(=O)c(C)c2C)cc(OC)c1CN1C[C@H](C)N(Cc2cccc3c2CCN(C(=O)/C(C#N)=C/C(C)(C)C)C3C)C[C@@H]1C (mixture of isomers) [Compound B121]
25 to 1000 nM
COc1cc(-c2cn(C)c(=O)c(C)c2C)cc(OC)c1CN1CCN(Cc2cccc3c2CCN(C(=O)/C(C#N)=C/C(C)(C)F)[C@H]3C)C2(CC2)C1 (mixture of isomers) [Compound C30]
25 to 1000 nM

Ask: Entry under review: COc1cc(-c2cn(C)c(=O)c(C)c2C)cc(OC)c1CN1CCN(Cc2cccc3c2CCN(C(=O)/C(C#N)=C/C2(C)CCOC2)C3C)C2(CC2)C1 (mixture of isomers) [Compound B174] . Reported DC50?
Reply: < 1.25 nM

Ask: Item under review: COc1cc(-c2cn(C)c(=O)c(C)c2C)cc(OC)c1CN1CCC2(CC1)CCN(c1cccc3c1CCN(C(=O)/C(C#N)=C/C(C)(C)CF)[C@@H]3C)C2 (mixture of isomers) [Compound C48] . Reported DC50?
Reply: 1.25 to 10 nM

====

systemUnderTest: BRD9 (Homo sapiens, UniProt Q9H8M2)
protocolDetails: Degradation of BRD9 (IF), immunofluorescence in MV4-11 cells, 24 hours (Assay Protocol 2)
Type: cell-based
Design: A suspension of MV4-11 cells (ATCC CRL-9591) was prepared; host or cells: MV4-11
conditionContext: Assay protocol 2; BRD9 degradation; read-out: DC50
readoutName: DC50

// below: answered molecules
CCCC1c2cccc(CN3CCN(Cc4c(OC)cc(-c5cn(C)c(=O)c(C)c5C)cc4OC)CC34CC4)c2CCN1C(=O)/C(C#N)=C/C(C)(C)C (mixture of isomers)
1.25 to 10 nM
COc1cc(-c2cn(C)c(=O)c(C)c2C)cc(OC)c1CN1CCN(Cc2cccc3c2CCN(C(=O)/C(C#N)=C/C2CCCC2)C3C)CC1 (mixture of isomers)
10 to 25 nM
COc1cc(-c2cn(C)c(=O)c(C)c2C)cc(OC)c1CN1CCC(Oc2cccc3c2CCN(C(=O)/C(C#N)=C/C(C)(C)C)C3C)CC1 (mixture of isomers)
< 1.25 nM
COc1cc(-c2cn(C)c(=O)c(C)c2C)cc(OC)c1CN1CCN(Cc2cccc3c2CCN(C(=O)/C(C#N)=C/C2CC(F)(F)C2)C3C)C2(CC2)C1 (mixture of isomers)
< 1.25 nM

API: the following record is the query input.
Ask: What value of DC50 has been recorded for this entry: CCCC(c1ccc(C(=O)N(C)CCCCCCC(=O)N2CCN(Cc3c(OC)cc(-c4cn(C)c(=O)c(C)c4C)cc3OC)CC2)cc1)N(C)C(=O)/C(C#N)=C/c1nccs1 (mixture of isomers)
Reply: 1.25 to 10 nM
